Origin of measurements: ChEMBL document CHEMBL1129678

Test system: Mus musculus
protocol text: Effective dose required to protect 50% of DBA/2 mice from audiogenic seizures, after ip administration
Assay type: functional
ED50 reference
measured attribute: ED50 (mg/kg)

# smi, measured attribute, value units, limit operator, test result
rows = [
    ("O=[N+]([O-])c1cc2cc(NS(=O)(=O)C(F)(F)F)c(O)nc2cc1[N+](=O)[O-]", "ED50", "mg/kg", ">", 50),
    ("O=P(O)(O)c1cc2cc(Cl)c(Cl)cc2nc1O", "ED50", "mg/kg", "=", 19),
    ("NS(=O)(=O)c1cccc2c1c([N+](=O)[O-])cc1nc(O)c(O)nc12", "ED50", "mg/kg", "=", 8),
    ("O=C(O)c1cc2cc([N+](=O)[O-])c([N+](=O)[O-])cc2nc1O", "ED50", "mg/kg", ">", 50),
]
